Recorded Ki values for a group of compounds are listed next.
SYSTEM: Neurotensin receptor type 1 (Homo sapiens)
Sequence (P30989 whole entry): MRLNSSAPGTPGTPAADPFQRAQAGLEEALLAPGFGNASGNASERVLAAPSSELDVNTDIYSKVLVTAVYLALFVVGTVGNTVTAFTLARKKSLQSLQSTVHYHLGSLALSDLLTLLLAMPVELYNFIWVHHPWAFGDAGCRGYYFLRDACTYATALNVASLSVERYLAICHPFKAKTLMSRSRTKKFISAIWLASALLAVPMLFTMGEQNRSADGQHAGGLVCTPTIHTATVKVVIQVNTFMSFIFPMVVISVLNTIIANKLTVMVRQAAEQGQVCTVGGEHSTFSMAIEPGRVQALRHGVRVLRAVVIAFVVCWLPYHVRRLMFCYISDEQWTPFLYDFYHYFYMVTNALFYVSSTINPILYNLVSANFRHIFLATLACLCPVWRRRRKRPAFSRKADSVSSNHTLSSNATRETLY
TEST: Inhibition of NTSR1 (unknown origin)
Square brackets hold non-standard residues; d marks the D form. Peptide text beside a SMILES is read from it. NMeR = CN[C@@H](CCCNC(=N)N)C(=O)O; Tle = CC(C)(C)[C@H](N)C(=O)O

Suppose we examine the compound CC(C)C[C@@H]1NC(=O)[C@H](C(C)(C)C)NC(=O)[C@H](Cc2ccc(O)cc2)NC(=O)[C@@H]2CCCN2C(=O)[C@H](CCCCN)NC(=O)[C@H](CCCNC(=N)N)NC1=O (cyclo(KPY[Tle]LR)) ; what Ki value has been reported?
1070 nM

***
// query Ki value for entry CN[C@@H](CCCNC(=N)N)C(=O)N[C@@H](CCCCN)C(=O)N1CCC[C@H]1C(=O)N[C@@H](Cc1c[nH]c2ccccc12)C(=O)N[C@H](C(=O)N[C@@H](CC(C)C)C(=O)O)C(C)(C)C (H-[NMeR]KPW[Tle]L-OH)
5.37 nM
